Could you please report measured half-life at 1 h, 0.05 µM for the items listed next?
Test: Microsomal stability, mouse liver microsomes
Format: in vitro ADME
Conditions: mouse, liver microsomes (pooled), pH 7.4; 37 °C; read-out: t1/2, mouse microsomes
Numbers only, in min.

- Compound: "O=C(Nc1ccc(OC(F)(F)F)cc1)NC1CCN(C(=O)CCCNc2c3c(nc4cc(Cl)ccc24)CCCC3)CC1 [12b]"
  half-life at 1 h, 0.05 µM [min]: 9

Can you give me half-life at 1 h, 0.05 µM for all of these, one by one?
1. O=C(Nc1ccc(OC(F)(F)F)cc1)NC1CCN(C(=O)CCCCNc2c3c(nc4cc(Cl)ccc24)CCCC3)CC1 [12c]
2. CC1=C[C@@H]2Cc3nc4cc(Cl)ccc4c(NCCCCC(=O)N4CCC(NC(=O)Nc5ccc(OC(F)(F)F)cc5)CC4)c3[C@H](C1)C2 [(−)-15]
3. O=C(Nc1ccc(OC(F)(F)F)cc1)NC1CCN(C(=O)CCNc2c3c(nc4cc(Cl)ccc24)CCCC3)CC1 [12a]

## Output
1: 4; 2: 4; 3: 6

* * *

System: SH-SY5Y cells
Assay: Cytotoxicity in SH-SY5Y cells, propidium iodide stain
Assay type: cell-based, human
Details: propidium iodide staining after 24 h of incubation; mean ± SD
Assay Endpoint: toxicity to SH-SY5Y cells LD50

Some molecules with known toxicity to SH-SY5Y cells LD50 results, for comparison:
- Molecule: "O=C(Nc1ccc(OC(F)(F)F)cc1)NC1CCN(C(=O)CCCNc2c3c(nc4cc(Cl)ccc24)CCCC3)CC1 [12b]"
  Readout Value: ">100 µM"
- Molecule: "O=C(Nc1ccc(OC(F)(F)F)cc1)NC1CCN(C(=O)CCNc2c3c(nc4cc(Cl)ccc24)CCCC3)CC1 [12a]"
  Readout Value: "92.8 ± 52.3 µM"
- Molecule: "CC1=C[C@@H]2Cc3nc4cc(Cl)ccc4c(NCCCCC(=O)N4CCC(NC(=O)Nc5ccc(OC(F)(F)F)cc5)CC4)c3[C@H](C1)C2 [(−)-15]"
  Readout Value: ">100 µM"

## Input What measured toxicity to SH-SY5Y cells LD50 goes with O=C(Nc1ccc(OC(F)(F)F)cc1)NC1CCN(C(=O)CCCCNc2c3c(nc4cc(Cl)ccc24)CCCC3)CC1 [12c] ?
## Output >100 µM

* * *

Assign pIC50 to each entry below.
Target: recombinant mouse AChE (Mus musculus)
Sequence (P21836 32-614): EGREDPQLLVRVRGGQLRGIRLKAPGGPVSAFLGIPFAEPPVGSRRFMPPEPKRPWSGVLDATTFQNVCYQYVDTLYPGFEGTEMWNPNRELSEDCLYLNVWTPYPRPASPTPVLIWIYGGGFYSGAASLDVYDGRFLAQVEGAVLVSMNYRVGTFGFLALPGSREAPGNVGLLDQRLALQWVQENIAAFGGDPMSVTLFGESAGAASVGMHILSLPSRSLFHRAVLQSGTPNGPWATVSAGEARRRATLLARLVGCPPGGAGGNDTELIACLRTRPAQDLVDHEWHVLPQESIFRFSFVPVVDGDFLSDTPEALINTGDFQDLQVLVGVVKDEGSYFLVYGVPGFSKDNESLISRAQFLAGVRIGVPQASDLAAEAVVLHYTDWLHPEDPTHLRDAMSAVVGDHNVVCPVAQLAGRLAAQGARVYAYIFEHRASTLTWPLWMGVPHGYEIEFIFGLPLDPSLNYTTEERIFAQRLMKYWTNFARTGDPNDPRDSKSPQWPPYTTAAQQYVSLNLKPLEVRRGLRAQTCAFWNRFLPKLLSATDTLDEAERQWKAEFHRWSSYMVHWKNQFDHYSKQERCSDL
Test: Mouse acetylcholinesterase inhibition, Ellman's method
Conditions: recombinant mouse AChE; mean ± SEM; read-out: mAChE IC50
Give bare numbers, as −log10 of the molar value.

Solved entries (count: 3):
- Molecule: "CC1=C[C@@H]2Cc3nc4cc(Cl)ccc4c(NCCCCC(=O)N4CCC(NC(=O)Nc5ccc(OC(F)(F)F)cc5)CC4)c3[C@H](C1)C2 [(−)-15]"
  pIC50: 8.58
- Molecule: "Nc1c2c(nc3cc(Cl)ccc13)CCCC2 [compound 2, 6-chlorotacrine, reference compound]"
  pIC50: 7.70
- Molecule: "O=C(Nc1ccc(OC(F)(F)F)cc1)NC1CCN(C(=O)CCCNc2c3c(nc4cc(Cl)ccc24)CCCC3)CC1 [12b]"
  pIC50: 8.40

Turning now to a further record.
## Input Look at this molecule and give its reported pIC50. CC1=C[C@H]2Cc3nc4cc(Cl)ccc4c(NCCCCC(=O)N4CCC(NC(=O)Nc5ccc(OC(F)(F)F)cc5)CC4)c3[C@@H](C1)C2 [(+)-15]
## Output 6.99

* * *

Answer each item with its documented microsomal CLint at 1 h.
Test: Microsomal stability, human liver microsomes
Type: in vitro ADME
Conditions: human, liver microsomes (pooled), pH 7.4; 37 °C
Please report the result as a number followed by the unit.

In the examples that follow, each entry is paired with its recorded microsomal CLint at 1 h.
- Compound: "O=C(Nc1ccc(OC(F)(F)F)cc1)NC1CCN(C(=O)CCCNc2c3c(nc4cc(Cl)ccc24)CCCC3)CC1 [12b]"
  Readout Value: "19 µL/min/mg"
- Compound: "O=C(Nc1ccc(OC(F)(F)F)cc1)NC1CCN(C(=O)CCCCNc2c3c(nc4cc(Cl)ccc24)CCCC3)CC1 [12c]"
  Readout Value: "8 µL/min/mg"
- Compound: "CC1=C[C@@H]2Cc3nc4cc(Cl)ccc4c(NCCCCC(=O)N4CCC(NC(=O)Nc5ccc(OC(F)(F)F)cc5)CC4)c3[C@H](C1)C2 [(−)-15]"
  Readout Value: "144 µL/min/mg"

## Input Give its microsomal CLint at 1 h value. Item: O=C(Nc1ccc(OC(F)(F)F)cc1)NC1CCN(C(=O)CCNc2c3c(nc4cc(Cl)ccc24)CCCC3)CC1 [12a]
## Output 57 µL/min/mg

* * *

For each entry below, report its solubility at 2 h value.
Experiment: Kinetic aqueous solubility screen (light scattering)
Conditions: 1% DMSO / 99% PBS
One number for each entry, in µM.

- Compound: "CC1=C[C@@H]2Cc3nc4cc(Cl)ccc4c(NCCCCC(=O)N4CCC(NC(=O)Nc5ccc(OC(F)(F)F)cc5)CC4)c3[C@H](C1)C2 [(−)-15]"
  Readout Value: 5.6
- Compound: "O=C(Nc1ccc(OC(F)(F)F)cc1)NC1CCN(C(=O)CCCNc2c3c(nc4cc(Cl)ccc24)CCCC3)CC1 [12b]"
  Readout Value: 13.7
- Compound: "O=C(Nc1ccc(OC(F)(F)F)cc1)NC1CCN(C(=O)CCNc2c3c(nc4cc(Cl)ccc24)CCCC3)CC1 [12a]"
  Readout Value: 42.6

Attention now shifts to the item below.
## Input # query: solubility at 2 h of entry O=C(Nc1ccc(OC(F)(F)F)cc1)NC1CCN(C(=O)CCCCNc2c3c(nc4cc(Cl)ccc24)CCCC3)CC1 [12c]
## Output 7.5

* * *

Field: remaining at 1 h. Provide a value for each of the compounds that follow.
Experiment: Microsomal stability, human liver microsomes
Assay type: in vitro ADME
Settings: human, liver microsomes (pooled), pH 7.4; after 1 h of incubation at 37 °C; read-out: % remaining compound, human microsomes
Numbers only, in %.

Please review the following examples before continuing.
- Compound: "CC1=C[C@@H]2Cc3nc4cc(Cl)ccc4c(NCCCCC(=O)N4CCC(NC(=O)Nc5ccc(OC(F)(F)F)cc5)CC4)c3[C@H](C1)C2 [(−)-15]"
  remaining at 1 h / %: 1
- Compound: "O=C(Nc1ccc(OC(F)(F)F)cc1)NC1CCN(C(=O)CCNc2c3c(nc4cc(Cl)ccc24)CCCC3)CC1 [12a]"
  remaining at 1 h / %: 4
- Compound: "O=C(Nc1ccc(OC(F)(F)F)cc1)NC1CCN(C(=O)CCCCNc2c3c(nc4cc(Cl)ccc24)CCCC3)CC1 [12c]"
  remaining at 1 h / %: 55

Let's switch to this compound now.
## Input I have this compound here, O=C(Nc1ccc(OC(F)(F)F)cc1)NC1CCN(C(=O)CCCNc2c3c(nc4cc(Cl)ccc24)CCCC3)CC1 [12b] , and I need its recorded remaining at 1 h.
## Output 34

* * *

Kindly state pIC50 for each of the entries shown.
Molecular target: human serum BChE (Homo sapiens)
Construct: human serum BChE (Sigma-Aldrich, Milan, Italy) was assessed by Ellman’s method; purchased Sigma-Aldrich, Milan, Italy; host or cells: human serum
Sequence (P06276 29-602): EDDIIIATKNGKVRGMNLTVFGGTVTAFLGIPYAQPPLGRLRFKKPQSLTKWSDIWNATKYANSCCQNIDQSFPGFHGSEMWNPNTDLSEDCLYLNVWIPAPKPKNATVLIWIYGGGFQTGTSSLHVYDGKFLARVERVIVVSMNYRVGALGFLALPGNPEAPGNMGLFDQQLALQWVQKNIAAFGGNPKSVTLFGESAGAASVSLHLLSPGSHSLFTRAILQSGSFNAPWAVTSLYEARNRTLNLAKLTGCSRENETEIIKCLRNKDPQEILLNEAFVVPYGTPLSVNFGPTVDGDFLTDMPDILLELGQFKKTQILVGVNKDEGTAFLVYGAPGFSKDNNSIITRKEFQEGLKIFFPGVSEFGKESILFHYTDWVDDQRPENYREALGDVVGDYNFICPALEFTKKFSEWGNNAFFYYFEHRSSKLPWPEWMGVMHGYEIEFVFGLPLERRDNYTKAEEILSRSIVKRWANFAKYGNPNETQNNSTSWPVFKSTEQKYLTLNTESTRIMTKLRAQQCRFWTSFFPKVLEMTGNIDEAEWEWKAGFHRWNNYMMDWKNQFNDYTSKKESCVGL
Type: biochemical
Details: human serum BChE; mean ± SEM; n.a. = not active, % inhibition <10% at 100 μM; read-out: hBChE IC50
Numbers only, as −log10 of the molar value.

Illustrative cases are given below, each with its answer.
- Compound: "O=C(Nc1ccc(OC(F)(F)F)cc1)NC1CCN(C(=O)CCNc2c3c(nc4cc(Cl)ccc24)CCCC3)CC1 [12a]"
  pIC50: 6.02
- Compound: "CC1=C[C@@H]2Cc3nc4cc(Cl)ccc4c(NCCCCC(=O)N4CCC(NC(=O)Nc5ccc(OC(F)(F)F)cc5)CC4)c3[C@H](C1)C2 [(−)-15]"
  pIC50: 6.21
- Compound: "CC1=C[C@H]2Cc3nc4cc(Cl)ccc4c(NCCCCC(=O)N4CCC(NC(=O)Nc5ccc(OC(F)(F)F)cc5)CC4)c3[C@@H](C1)C2 [(+)-15]"
  pIC50: 6.75
- Compound: "O=C(Nc1ccc(OC(F)(F)F)cc1)NC1CCN(C(=O)CCCNc2c3c(nc4cc(Cl)ccc24)CCCC3)CC1 [12b]"
  pIC50: 6.38

## Input Find the recorded pIC50 belonging to O=C(Nc1ccc(OC(F)(F)F)cc1)NC1CCN(C(=O)CCCCNc2c3c(nc4cc(Cl)ccc24)CCCC3)CC1 [12c] and report it.
## Output 6.75

* * *

Exercise: state measured microsomal CLint at 1 h, 0.05 µM for each of the compounds provided.
Experiment: Microsomal stability, rat liver microsomes
Format: in vitro ADME
Conditions: rat, liver microsomes (pooled), pH 7.4; 37 °C
One number for each entry, in µL/min/mg.

Example compounds with recorded microsomal CLint at 1 h, 0.05 µM:
- Compound: "O=C(Nc1ccc(OC(F)(F)F)cc1)NC1CCN(C(=O)CCCNc2c3c(nc4cc(Cl)ccc24)CCCC3)CC1 [12b]"
  Readout Value: 69
- Compound: "O=C(Nc1ccc(OC(F)(F)F)cc1)NC1CCN(C(=O)CCNc2c3c(nc4cc(Cl)ccc24)CCCC3)CC1 [12a]"
  Readout Value: 56
- Compound: "CC1=C[C@@H]2Cc3nc4cc(Cl)ccc4c(NCCCCC(=O)N4CCC(NC(=O)Nc5ccc(OC(F)(F)F)cc5)CC4)c3[C@H](C1)C2 [(−)-15]"
  Readout Value: 54

# ---- query compound ----
## Input Value lookup for microsomal CLint at 1 h, 0.05 µM; key = O=C(Nc1ccc(OC(F)(F)F)cc1)NC1CCN(C(=O)CCCCNc2c3c(nc4cc(Cl)ccc24)CCCC3)CC1 [12c]
## Output 26
